ASSAY EXPLANATION: yeast display, Sf9 membrane polyspecificity reagent, FACS + sequencing; frameworks hold sequencing errors
MEASUREMENT LABEL: polyreactivity (PSR sort gate)

Here's what some known entries look like.
| POLYMER SEQUENCE | RESULT |
| --- | --- |
| QVQLVESGGGLVQAGGSLRLSCAASGRIFGLYAMGWYRQAPGKERELVAAITSSTGSTYYADSVKGRFTISRDNAKNTVYLQMNSLKPEDTAVYYCAADLYSPSIYGYIYYTWLDYWGQGTQVTVSS | high polyreactivity |
| QVQLVESGGCLVQAGGSLRLSCAASGSTFWWNTMGWYRQAPGKERELVADIRTSGGGTYYADSVKGRFTISRDNAKNTVYLQMNSLKPEDTAVYYCNADPKWEMGSWGQGTQVTVSS | low polyreactivity |
| KVQVVESGGGFVQAGGSLRLSCAASGSTFVINAMGCYRQAPGKERELVAAITWGGGRTYYADSVKGRFTISRDNEKNTVYFQMNSLKPEDTAVYYCAAVGSGWKGDYWGQGTQVNVSS | low polyreactivity |
| QVQLVESGGGLVQAGGSLRLSCAASGFTFRWYAMGWYRQAPGKERELVAAITHSGGSTYYADSVKGRFTISRDNAKNTVYLQMNSLKPEDTAVYYCAAGYIRKYSAFRYNYWGQGTQVTVSS | high polyreactivity |
| QVQLVESGGGLVQAGCSLRLSCAASGFIYPVNAMGWYRQAPGKERELVAAITYSTGSTYYADSVKGRFTISRDNAKNTVYLQMNSLKPEDTAVYYCAADVPPGEVVTNDYWGQGTQVTVSS | low polyreactivity |
| QVQLVESGGGLVQAGGSLRLSCAASGRTFPYYAMGGYRKAPGKERELLASISRGGNTNYADSVKGRFTISRDNAKNTVYLQMNSLKPEATAVYYCAADYYLAYGSRRGGYWGQGTQVTVSS | high polyreactivity |
| QVQLVESGGGLVQAGGSLRLSCAASGSTFRYYAMGWYRQAPGKERELVAAISSAGTTYYADSVKGRFTISRDNAKNTVYLQMNSLKPEDTAVYYCTARFVYHSSFAGFDYWGQGTQVTVSS | low polyreactivity |
| QVQLVESGRGLVQAGGSLRLSSAASGRIFPTNAMGWYRQAPGKERELVASIDSGDITHYADSVKGRFTISRDNAMNTVYLQMISLKPEDTAVYYCAKRPQAQYTYITGDDYWGQGTQVTVSS | low polyreactivity |
| QVQLEESGGGLVQAGGSLRLSCAASGRNFYYNAIGWYRQAPGKERELVATITRAGGTYYADSVKGRFTISRDNAKNTVYLQMNSLKPEDTAVYYCAKRHPIVDDYKGDYWGQGTQVTVSS | low polyreactivity |
| QVQLVESGGGLVQAGGSLRLSCAASGFTFDWYAMGWYRPAPGTERELVAAISTRGTSTYYADSVKGRFTISRDNAKNTVYLQMNSLKPEDTAVYYCAKRSYHGGDYWGQGTQVTVSS | high polyreactivity |

Now take the following sequence into account.
polyreactivity (PSR sort gate) for `QVQLVESGGGLVQAGGSLRLSCAASGYTFFFNVMGWYRQAPGKVRELVAAISYSGGSTNYADSVKGRFTISRDNAKNTVYLQMNSLKPEDTAVYYCNARSVSRNGYEDVYWGQGTQVTVSS` is low polyreactivity
